- ASSAY_INFO: Solubilization of sulfonamides with CD-g-CS (UV-Vis)
- SETUP_CONDITIONS: 10 mg/mL CD-g-CS solution, 25 °C, aqueous with cosolvent or surfactant or cyclodextrin, thermodynamic from solid, solubility with CD-g-CS, with 10 mg/mL CD-g-CS (QCD = 0.643 × 10^3 μmol/g)
MEASURED_PARAMETER: solubility at 2 h (µg/mL)
Please state the figure in µg/mL; there is no need to write the unit.

-- ask Reported solubility at 2 h, compound Nc1ccc(S(=O)(=O)Nc2ncccn2)cc1 [sulfadiazine] : ____
-- reply 236

###

- ASSAY_INFO: Aqueous solubility of sulfonamides (UV-Vis)
- SETUP_CONDITIONS: distilled water, thermodynamic from solid
MEASURED_PARAMETER: solubility (µg/mL)
Answer in µg/mL, number only, no unit symbol.

-- ask Which solubility value is on record for COc1cc(NS(=O)(=O)c2ccc(N)cc2)ncn1 ?
-- reply 69
